- System: Efa 1
- procedure.summary: Kinetic parameters for Efa 1
- Type: biochemical, Enterococcus faecalis
- condition.info: substrates; cofactor not given
property.measured: kcat (s⁻¹)
Write the number in s⁻¹ without appending the unit.

Looking for the measured kcat of Cc1cc2nc3c(=O)[nH]c(=O)nc-3n(C[C@H](O)[C@H](O)[C@H](O)COP(=O)(O)OP(=O)(O)OC[C@H]3O[C@@H](n4cnc5c(N)ncnc54)[C@H](O)[C@@H]3O)c2cc1C [FAD] , can you help?
187.8

Looking for the measured kcat of Cc1cc2nc3c(=O)[nH]c(=O)nc-3n(C[C@H](O)[C@H](O)[C@H](O)COP(=O)(O)O)c2cc1C [FMN] , can you help?
340.0

Looking for the measured kcat of NC(=O)c1cc(N2CC2)c([N+](=O)[O-])cc1[N+](=O)[O-] [CB 1954, 5-(aziridin-1-yl)-2,4-dinitrobenzamide] , can you help?
12.0

Looking for the measured kcat of CC1=CC(=O)c2ccccc2C1=O [Menadione] , can you help?
264.8
